The reported numbers originate from ChEMBL document CHEMBL3045259.

target: Urease (Canavalia ensiformis, UniProt P07374)
Sequence (P07374 whole entry): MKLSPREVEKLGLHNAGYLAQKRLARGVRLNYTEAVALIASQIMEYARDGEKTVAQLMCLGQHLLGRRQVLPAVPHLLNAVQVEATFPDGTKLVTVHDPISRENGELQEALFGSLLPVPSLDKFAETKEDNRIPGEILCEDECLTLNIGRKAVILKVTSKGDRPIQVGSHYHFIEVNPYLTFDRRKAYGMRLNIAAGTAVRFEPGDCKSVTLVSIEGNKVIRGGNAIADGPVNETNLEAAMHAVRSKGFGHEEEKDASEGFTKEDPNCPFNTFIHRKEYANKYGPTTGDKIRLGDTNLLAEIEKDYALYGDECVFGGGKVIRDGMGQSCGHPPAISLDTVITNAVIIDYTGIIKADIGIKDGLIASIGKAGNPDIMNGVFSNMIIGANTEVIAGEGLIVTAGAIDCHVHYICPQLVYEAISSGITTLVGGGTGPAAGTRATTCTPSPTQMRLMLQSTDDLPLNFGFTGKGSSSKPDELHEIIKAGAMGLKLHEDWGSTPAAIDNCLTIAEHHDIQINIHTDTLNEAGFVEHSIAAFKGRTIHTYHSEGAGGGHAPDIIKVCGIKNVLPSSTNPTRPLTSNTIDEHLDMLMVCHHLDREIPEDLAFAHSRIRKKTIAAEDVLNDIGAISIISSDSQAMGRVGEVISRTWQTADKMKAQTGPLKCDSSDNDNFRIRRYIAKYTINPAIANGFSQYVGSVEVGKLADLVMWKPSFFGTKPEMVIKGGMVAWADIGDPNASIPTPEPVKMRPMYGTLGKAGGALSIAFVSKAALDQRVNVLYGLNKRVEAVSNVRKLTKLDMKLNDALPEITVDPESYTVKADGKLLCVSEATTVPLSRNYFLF
pKi: −log10 of the molar value.
Binary call on pKi: 1 (yes) from 6 upward, 0 (no) beneath that.

structure.string | category.label
COc1cccc(C(=O)NC(=S)Nc2ccc(S(N)(=O)=O)cc2)c1 | 1 (yes)
NS(=O)(=O)c1ccc(NC(=S)NC(=O)c2cc([N+](=O)[O-])ccc2Cl)cc1 | 1 (yes)
NS(=O)(=O)c1ccc(NC(=S)NC(=O)c2ccc(Cl)cc2Cl)cc1 | 0 (no)
NS(=O)(=O)c1ccc(NC(=S)NC(=O)c2ccc(Cl)cc2[N+](=O)[O-])cc1 | 0 (no)
NS(=O)(=O)c1ccc(NC(=S)NC(=O)c2ccc(Cl)cc2)cc1 | 1 (yes)
NS(=O)(=O)c1ccc(NC(=S)NC(=O)c2cccc([N+](=O)[O-])c2)cc1 | 1 (yes)

----------
tested on: Escherichia coli; experiment: Antibacterial activity against Escherichia coli assessed as growth inhibition after 24 hr by NCCLS broth micro-dilution method; format: functional

molecule | MIC [µg/mL]
CCC(CC(=O)NC(=S)Nc1ccc(S(N)(=O)=O)cc1)c1ccccc1 (stereo not given) | 1.25
NS(=O)(=O)c1ccc(NC(=S)NC(=O)c2ccc(Cl)cc2Cl)cc1 | 0.313
COc1ccc(C(=O)NC(=S)Nc2ccc(S(N)(=O)=O)cc2)c(OC)c1OC | 0.313
NS(=O)(=O)c1ccc(NC(=S)NC(=O)c2ccc([N+](=O)[O-])cc2)cc1 | 0.313
CCCCCCCCCCCC(=O)NC(=S)Nc1ccc(S(N)(=O)=O)cc1 | 0.313

----------
Attribute: MIC
tested on: Staphylococcus aureus; assay: Antibacterial activity against Staphylococcus aureus assessed as growth inhibition after 24 hr by NCCLS broth micro-dilution method; type: functional
observation.type: MIC

structure.string | observation.type | reading
COc1cccc(C(=O)NC(=S)Nc2ccc(S(N)(=O)=O)cc2)c1OC | MIC | 0.313 µg/mL
NS(=O)(=O)c1ccc(NC(=S)NC(=O)c2cccc(Cl)c2)cc1 | MIC | 0.156 µg/mL
Cc1cccc(C(=O)NC(=S)Nc2ccc(S(N)(=O)=O)cc2)c1 | MIC | 0.625 µg/mL
Cc1ccccc1C(=O)NC(=S)Nc1ccc(S(N)(=O)=O)cc1 | MIC | 0.625 µg/mL
CCCCCCCCCCCC(=O)NC(=S)Nc1ccc(S(N)(=O)=O)cc1 | MIC | 0.313 µg/mL

----------
The next entries give measured Ki for UniProt P07374.

molecule | Ki [nM]
CCC(CC(=O)NC(=S)Nc1ccc(S(N)(=O)=O)cc1)c1ccccc1 (stereo not given) | 1230
CCCCCCCCCCCC(=O)NC(=S)Nc1ccc(S(N)(=O)=O)cc1 | 1300
NS(=O)(=O)c1ccc(NC(=S)NC(=O)c2cccc(Cl)c2)cc1 | 1500
NS(=O)(=O)c1ccc(NC(=S)NC(=O)c2cccc(F)c2)cc1 | 1490
NC(N)=S | 23000

----------
// Ki lookup, one value per entry
molecular target: Urease (Canavalia ensiformis, UniProt P07374); experiment: Inhibition of Canavalia ensiformis (jack bean) urease assessed as release of ammonia after 30 min by indophenol method
observation.type: Ki (nM)

structure.string | study.target | observation.type | reading
COc1cccc(C(=O)NC(=S)Nc2ccc(S(N)(=O)=O)cc2)c1OC | Urease (Canavalia ensiformis, UniProt P07374) | Ki | 820
NS(=O)(=O)c1ccc(NC(=S)NC(=O)c2ccco2)cc1 | Urease (Canavalia ensiformis, UniProt P07374) | Ki | 1140
COc1cc(OC)cc(C(=O)NC(=S)Nc2ccc(S(N)(=O)=O)cc2)c1 | Urease (Canavalia ensiformis, UniProt P07374) | Ki | 1210
COc1ccc(C(=O)NC(=S)Nc2ccc(S(N)(=O)=O)cc2)c(OC)c1OC | Urease (Canavalia ensiformis, UniProt P07374) | Ki | 1340
